tested on: FGR; conditions: concentration: 1 μM, replicates: in singlicate; n = 1;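 further: KINOMEscan kinase panel screen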
Label key: TRUE means %Inh under 20%; FALSE means %Inh of 20% or more.

compound | group
Cc1ccc(C)c(NC(=O)Nc2ccc(C)c(-c3ccc(C(=O)Nc4ccncc4)cc3)c2)c1 | TRUE

// query Field: below-cutoff. Rule: recorded %Inh strictly less than 20%. Subject: "CC(=O)Nc1cn2nc(Oc3cccc(NC(=O)c4cccc(C(F)(F)F)c4)c3)ccc2n1"
// result FALSE

// query Field: below-cutoff. Rule: recorded %Inh strictly less than 20%. Subject: "O=C(Nc1n[nH]c2nc(-c3ccccc3O)ccc12)C1CC1"
// result TRUE

// query Field: below-cutoff. Rule: recorded %Inh strictly less than 20%. Subject: "Nc1cccc(-c2ccc3c(N)n[nH]c3c2)c1"
// result FALSE

// query Field: below-cutoff. Rule: recorded %Inh strictly less than 20%. Subject: "CCn1cnc2c(NCc3ccccc3)ncnc21"
// result TRUE

// query Field: below-cutoff. Rule: recorded %Inh strictly less than 20%. Subject: "Cc1cc(-c2ccnc(Nc3cccc(C#N)c3)n2)cc(C)c1O"
// result FALSE

// query Field: below-cutoff. Rule: recorded %Inh strictly less than 20%. Subject: "CC(C)c1nc(-c2cccc(NS(=O)(=O)c3c(F)cccc3F)c2)c(-c2ccnc(Nc3ccc(N4CCOCC4)nc3)n2)s1.Cl"
// result FALSE

// query Field: below-cutoff. Rule: recorded %Inh strictly less than 20%. Subject: "CN(c1ccc(NC(=O)Nc2cccc(Cl)c2)cc1)c1ccnc(N)n1.Cl"
// result TRUE

// query Field: below-cutoff. Rule: recorded %Inh strictly less than 20%. Subject: "COc1cccc2c(-c3ccncc3)c(-c3ccc(F)cc3)nn12"
// result TRUE

// query Field: below-cutoff. Rule: recorded %Inh strictly less than 20%. Subject: "O=C(Nc1n[nH]c2nc(-c3ccccc3)ccc12)C1CC1"
// result TRUE

// query Field: below-cutoff. Rule: recorded %Inh strictly less than 20%. Subject: "Cl.O=C(Nc1ccc(Oc2ccc3[nH]c(NC(=O)c4ccco4)nc3c2)cc1)Nc1cc(C(F)(F)F)ccc1F"
// result FALSE

// query Field: below-cutoff. Rule: recorded %Inh strictly less than 20%. Subject: "CN(c1ccc(NC(=O)N2CCN(CCCN3CCOCC3)CC2)cc1)c1ccnc(Nc2ccc(CS(C)(=O)=O)cc2)n1.Cl"
// result FALSE

// query Field: below-cutoff. Rule: recorded %Inh strictly less than 20%. Subject: "CN(c1ccc(F)c(NC(=O)c2cccc(OC(C)(C)C#N)c2Cl)c1)c1ccc2nc(NC(=O)C3CC3)sc2n1"
// result FALSE

// query Field: below-cutoff. Rule: recorded %Inh strictly less than 20%. Subject: "COc1cccc(CC(=O)N2CCc3cc(-c4cn(C)c5ncnc(N)c45)ccc32)c1"
// result TRUE

// query Field: below-cutoff. Rule: recorded %Inh strictly less than 20%. Subject: "O=C(Nc1n[nH]c2cc(-c3cccs3)ccc12)C1CC1"
// result TRUE

// query Field: below-cutoff. Rule: recorded %Inh strictly less than 20%. Subject: "Cc1nn2c(=O)cc(N3CCO[C@H](C)C3)nc2n1Cc1cccc(Cl)c1Cl"
// result TRUE

// query Field: below-cutoff. Rule: recorded %Inh strictly less than 20%. Subject: Cl.Cl.NCC(NC(=O)c1cc(-c2cccnc2)c(-c2ccnc3[nH]ccc23)s1)c1ccccc1 (centres unmarked)
// result FALSE

###

test system: MAP3K1; conditions: concentration: 1 μM, replicates: in singlicate; n = 1
Reported %Inh maps to class as: class A: < 4%; class B: ≥ 4% and < 20%; class C: ≥ 20%

Use these answered entries as a reference point.
compound | group
Cc1ccc(O)cc1Nc1ccnc2cc(-c3ccc(CN4CCCCC4)o3)ccc12 | class C
COc1ccc(C2=C(Nc3cccc(O)c3)C(=O)NC2=O)cc1 | class C
Cl.Cl.NCC(NC(=O)c1cc(-c2cccnc2)c(-c2ccnc3[nH]ccc23)s1)c1ccccc1 (stereo not drawn) | class B

Okay, now this compound:
// query Exercise: read the entry "O=C(Nc1n[nH]c2nc(-c3cccc(O)c3)ccc12)C1CC1" and state which class it falls under.
// result class B

###

tested on: MINK; construct: gene MINK1; conditions: concentration: 1 μM, replicates: in singlicate; n = 1
Reported %Inh maps to class as: low interval: < 20%; middle interval: ≥ 20% and < 50%; high interval: ≥ 50%

Use these answered entries as a reference point.
compound | group
O=C(Nc1n[nH]c2nc(-c3ccccc3)ccc12)C1CC1 [SB-708999] | high interval
O=C(O)C(F)(F)F.O=c1[nH]ccc2nc(N[C@@H]3CCNC3)nc(Nc3cc(Cl)cc(Cl)c3)c12 [GSK2188764] | high interval
COc1cccc2c(-c3ccncc3)c(-c3ccc(F)cc3)nn12 [GW468513] | high interval

Okay, now this compound:
// query Exercise: read the entry CN1CCN(Cc2ccc(NC(=O)Nc3ccc(N(C)c4ccnc(Nc5ccc(CS(C)(=O)=O)cc5)n4)cc3)cc2)CC1.Cl [GW827654] and state which class it falls under.
// result high interval

###

tested on: RIOK3; conditions: concentration: 1 μM, replicates: in singlicate; n = 1
Criterion: %Inh meeting or surpassing 60%. Met: Yes. Not met: No.

Use these answered entries as a reference point.
compound | assay-target | group
CC(C)c1nc(-c2ccc(F)c(NS(=O)(=O)c3c(F)cccc3F)c2)c(-c2ccnc(Nc3ccc(N4CCOCC4)nc3)n2)s1 [GSK1804250] | RIOK3 | Yes
c1ccc(Oc2ccc(Nc3ccnc4cc(-c5ccc(CN6CCCCC6)o5)ccc34)cc2)nc1 [GW567143] | RIOK3 | No

// query Quick check: does Cl.O=C(Nc1ccc(Oc2ccc3[nH]c(NC(=O)c4ccco4)nc3c2)cc1)Nc1cc(C(F)(F)F)ccc1F [GW683134] have %Inh greater than or equal to 60%?
// result No

// query Quick check: does Cc1ccc(NC(=O)c2cccc(N3CCCCC3)c2)cc1-c1ccc(C(=O)NCC2CC2)cc1 [GSK1917008] have %Inh greater than or equal to 60%?
// result No

// query Quick check: does CN1CCN(Cc2ccc(NC(=O)Nc3ccc(N(C)c4ccnc(Nc5ccc(CS(C)(=O)=O)cc5)n4)cc3)cc2)CC1.Cl [GW827654] have %Inh greater than or equal to 60%?
// result Yes

// query Quick check: does "CC(C)(C)c1ccc(C(=O)Nc2cn3cc(-n4ccnc4)ccc3n2)cc1" have %Inh greater than or equal to 60%?
// result No

// query Quick check: does CN(c1ccc(NC(=O)N2CCN(CCCN3CCOCC3)CC2)cc1)c1ccnc(Nc2ccc(CS(C)(=O)=O)cc2)n1.Cl [GW830899] have %Inh greater than or equal to 60%?
// result Yes

// query Quick check: does Nc1cccc(-c2ccc3c(N)n[nH]c3c2)c1 [GSK2193613] have %Inh greater than or equal to 60%?
// result No

// query Quick check: does "CCNC(=O)/C=C/c1n[nH]c2cc(Sc3ccccc3C(=O)NC)ccc12" have %Inh greater than or equal to 60%?
// result No

// query Quick check: does Cc1ccc(NC(=O)c2ccnc(N3CCCCC3)c2)cc1-c1ccc(C(=O)NCC2CC2)cc1 [GW775610] have %Inh greater than or equal to 60%?
// result No

###

test system: AAK1; conditions: concentration: 1 μM, replicates: in singlicate; n = 1
The compounds listed here are annotated with their %Inh.
Please give a number only; it is taken to be in %.

Recorded results for 6 compounds are shown here.
compound | assay-target | readout-unit | measured
Cc1ccc(NC(=O)c2ccc(Cl)c(Cl)c2)cc1-c1ccc(C(=O)Nc2ccncc2)cc1 [GSK1398460] | AAK1 | % | 8
CCn1cnc2c(NCc3ccccc3)ncnc21 [SKF-96418] | AAK1 | % | 0
Cn1cc(-c2cnc(N)c3c(-c4ccc5c(c4)CCN5C(=O)Cc4ccccc4)csc23)cn1 [GSK2593074] | AAK1 | % | 0
CC(C)c1nc(-c2ccc(F)c(NS(=O)(=O)c3c(F)cccc3F)c2)c(-c2ccnc(Nc3ccc(N4CCOCC4)nc3)n2)s1 [GSK1804250] | AAK1 | % | 7
CC(C)NCC(Cc1ccccc1)NC(=O)c1cc(Br)c(-c2ccnc3[nH]ccc23)s1.Cl.Cl (centres unmarked) [GSK1383281] | AAK1 | % | 25
Cc1ccccc1CC(=O)N1CCc2cc(-c3cn(C)c4ncnc(N)c34)ccc21 [GSK2603346] | AAK1 | % | 3

// query I'm curious: which %Inh was measured for CCOc1nccc(-c2c(-c3ccc(F)cc3)ncn2C2CCNCC2)n1 [SB-249175] tested on AAK1?
// result 11

// query I'm curious: which %Inh was measured for Cc1cc(-c2c(-c3ccc(F)cc3)ncn2CCCN2CCOCC2)nc(N)n1 [SB-222517] tested on AAK1?
// result 14
